Listed here: items and their measured λem.
Test: Optical properties: UV-visible spectra, fluorescence excitation and emission
Type: physicochemical
Conditions: fluorescence emission wavelength

# Compound, λem / nm
rows = [
    ("Nc1nc2c(nc(C#Cc3ccc(C(F)(F)F)cc3)n2[C@@H]2O[C@H](CO)[C@@H](O)[C@H]2O)c(=O)[nH]1 [Compound 5g]", 468),
    ("Nc1ncnc2c1nc(C#Cc1ccc(C(F)(F)F)cc1)n2[C@@H]1O[C@H](CO)[C@@H](O)[C@H]1O [Compound 6g]", 440),
    ("COc1ccc(C#Cc2nc3c(N)ncnc3n2[C@@H]2O[C@H](CO)[C@@H](O)[C@H]2O)cc1 [Compound 6c, 8-(4-methoxyphenylethynyl)-adenosine]", 380),
    ("Cc1ccc(C#Cc2nc3c(=O)[nH]c(N)nc3n2[C@@H]2O[C@H](CO)[C@@H](O)[C@H]2O)cc1 [Compound 5b, 8-(4′-Methylphenylethynyl)guanosine]", 415),
    ("CC(=O)c1ccc(C#Cc2nc3c(=O)[nH]c(N)nc3n2[C@@H]2O[C@H](CO)[C@@H](O)[C@H]2O)cc1 [Compound 5f]", 532),
    ("Nc1ncnc2c1nc(C#Cc1ccccc1)n2[C@@H]1O[C@H](CO)[C@@H](O)[C@H]1O [Compound 6a, 8-(Phenylethynyl)adenosine]", 397),
]

====

Listed here: items and their measured Stokes shift.
Test: Optical properties: UV-visible spectra, fluorescence excitation and emission
Assay type: physicochemical
Conditions: (1/λex − 1 λem)

# Molecule Smiles, Stokes shift
records = [
    ("CCN(CC)c1ccc(C#Cc2nc3c(=O)[nH]c(N)nc3n2[C@@H]2O[C@H](CO)[C@@H](O)[C@H]2O)cc1", "5205 cm⁻¹"),
    ("CC(=O)c1ccc(C#Cc2nc3c(=O)[nH]c(N)nc3n2[C@@H]2O[C@H](CO)[C@@H](O)[C@H]2O)cc1", "6392 cm⁻¹"),
    ("CC(=O)c1ccc(C#Cc2nc3c(N)ncnc3n2[C@@H]2O[C@H](CO)[C@@H](O)[C@H]2O)cc1", "6454 cm⁻¹"),
    ("Nc1nc2c(nc(C#Cc3ccc(C(F)(F)F)cc3)n2[C@@H]2O[C@H](CO)[C@@H](O)[C@H]2O)c(=O)[nH]1", "4539 cm⁻¹"),
]

====

Listed here: items and their measured Quantum yield.
Assay: UV absorbance and fluorescence of ribonucleoside analogues in DMSO (molar extinction coefficient, quantum yield)
Assay type: physicochemical
Conditions: relative to quinine sulphate and anthracene standards
Experimental Endpoint: Quantum yield (%)

# Molecule, Experimental Endpoint, Val
records = [
    ("Nc1ncnc2c1nc(C#Cc1cccc3ccccc13)n2[C@@H]1O[C@H](CO)[C@@H](O)[C@H]1O [Compound 6h, 8-(Napthylethynyl)adenosine]", "Quantum yield", 49),
    ("Nc1ncnc2c1nc(C#Cc1ccc(C(F)(F)F)cc1)n2[C@@H]1O[C@H](CO)[C@@H](O)[C@H]1O [Compound 6g]", "Quantum yield", 8.8),
    ("CCN(CC)c1ccc(C#Cc2nc3c(N)ncnc3n2[C@@H]2O[C@H](CO)[C@@H](O)[C@H]2O)cc1 [Compound 6e]", "Quantum yield", 8.4),
]

====

Assay: UV absorbance and fluorescence of ribonucleoside analogues in DMSO (molar extinction coefficient, quantum yield)
Format: physicochemical

# Molecule, Unit Of Measure, Wavelength at maximum in UV absorption
measured = [
    ("CSc1ccc(C#Cc2nc3c(=O)[nH]c(N)nc3n2[C@@H]2O[C@H](CO)[C@@H](O)[C@H]2O)cc1 [Compound 5d]", "nm", 343),
    ("Nc1ncnc2c1nc(C#Cc1cccc3ccccc13)n2[C@@H]1O[C@H](CO)[C@@H](O)[C@H]1O [Compound 6h, 8-(Napthylethynyl)adenosine]", "nm", 349),
    ("Cc1ccc(C#Cc2nc3c(=O)[nH]c(N)nc3n2[C@@H]2O[C@H](CO)[C@@H](O)[C@H]2O)cc1 [Compound 5b, 8-(4′-Methylphenylethynyl)guanosine]", "nm", 331),
    ("COc1ccc(C#Cc2nc3c(N)ncnc3n2[C@@H]2O[C@H](CO)[C@@H](O)[C@H]2O)cc1 [Compound 6c, 8-(4-methoxyphenylethynyl)-adenosine]", "nm", 326),
    ("Nc1nc2c(nc(C#Cc3ccccc3)n2[C@@H]2O[C@H](CO)[C@@H](O)[C@H]2O)c(=O)[nH]1 [Compound 5a, 8-(Phenylethynyl)guanosine]", "nm", 330),
    ("COc1cccc(C#Cc2nc3c(N)ncnc3n2[C@@H]2O[C@H](CO)[C@@H](O)[C@H]2O)c1 [Adenosine —OCH3 meta]", "nm", 324),
    ("Nc1ncnc2c1nc(C#Cc1ccc(Cl)cc1)n2[C@@H]1O[C@H](CO)[C@@H](O)[C@H]1O [Adenosine —Cl para]", "nm", 326),
    ("Nc1ncnc2c1nc(C#Cc1ccc(F)cc1)n2[C@@H]1O[C@H](CO)[C@@H](O)[C@H]1O [Adenosine —F para]", "nm", 320),
    ("CSc1ccc(C#Cc2nc3c(N)ncnc3n2[C@@H]2O[C@H](CO)[C@@H](O)[C@H]2O)cc1 [Compound 6d]", "nm", 338),
    ("Nc1nc2c(nc(C#Cc3cccc4ccccc34)n2[C@@H]2O[C@H](CO)[C@@H](O)[C@H]2O)c(=O)[nH]1 [Compound 5h, 8-(Napthylethynyl)guanosine]", "nm", 357),
    ("Nc1nc2c(nc(C#Cc3ccc(F)cc3)n2[C@@H]2O[C@H](CO)[C@@H](O)[C@H]2O)c(=O)[nH]1 [Guanosine —F para]", "nm", 333),
    ("Nc1nc2c(nc(C#Cc3ccc(C(F)(F)F)cc3)n2[C@@H]2O[C@H](CO)[C@@H](O)[C@H]2O)c(=O)[nH]1 [Compound 5g]", "nm", 348),
    ("COc1ccccc1C#Cc1nc2c(N)ncnc2n1[C@@H]1O[C@H](CO)[C@@H](O)[C@H]1O [Adenosine —OCH3 ortho]", "nm", 333),
]
